Tested On: T1, canine OX40L, full length membrane form, expressed on HEK293 cells (canine)
T1 construct: also called OX40L expressing HEK; HEK OX40L cells
T1 chain: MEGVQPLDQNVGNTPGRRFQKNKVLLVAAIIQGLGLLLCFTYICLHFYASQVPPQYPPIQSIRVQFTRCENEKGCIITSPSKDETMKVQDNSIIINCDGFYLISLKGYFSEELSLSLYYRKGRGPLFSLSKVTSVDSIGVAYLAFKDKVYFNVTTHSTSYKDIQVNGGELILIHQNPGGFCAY
Run Description: flow cytometry
Measurement Type: GEO mean OX40L expressing HEK
Respond with the number and no other words.

Check out these entries, answers already filled in.
Prompt: # lookup: GEO mean OX40L expressing HEK of PMX042 (antibody, V domains shown, also called PMX42) VH: EVQLVESGGDLVKPGGSLRLSCVASGFTFSSYHMSWVRQAPGKGLQWVAYITSGGSTTSYADAVKGRFTISRDNAKNTLYLQMDSLRADDTAVYYCASDLVLLLGGADYWGQGTLVTVSS VL: SYELTQPPSVNVTLRETAHITCGGDSIGRKYVQWIQQHPGQAPVVIIYKDYNRPTGIPERFSGANSGNTATLTISGALAEDEADYYCQVGDSGTKAVFGGGTHLTVL
Completion: 1.51e+06

Prompt: # iterate: PMX088 (antibody, V domains shown) VH: EVQLVESGGDLVKPGGSLRLSCVASGFTFNTYHMNWVRQAPGKGLHWVAFINSGGTGTGYSDTVKGRFTISRDYAKNTLYLQMNSLRAEDTAVYYCVSGSIWTHFDYWGQGTLVTVSS VL: SYVLTQLPSVSMTLRQTAHITCGGDIIGSKSVYWYQQKLGQAPVLIIYRDTNRPTGIPERFSGASSGNTATLTISGALAEDEADYYCQVWDSNTQAVFGGGTHLTVL
Completion: 783000

Alright, here's another binder for you.
Prompt: # lookup: GEO mean OX40L expressing HEK of PMX026 (antibody, V domains shown, also called PMX26) VH: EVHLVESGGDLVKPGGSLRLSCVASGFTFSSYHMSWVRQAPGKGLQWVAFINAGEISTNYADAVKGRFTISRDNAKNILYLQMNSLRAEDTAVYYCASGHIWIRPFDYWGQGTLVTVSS VL: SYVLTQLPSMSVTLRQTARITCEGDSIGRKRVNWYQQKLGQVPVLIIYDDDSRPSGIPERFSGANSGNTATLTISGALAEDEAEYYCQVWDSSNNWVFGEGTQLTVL
Completion: 1.39e+06
